Numbers sourced from paper PMC3329623.

Target: zfα5(SWAA)β1-1 loop swap integrin (D3-A3 loop RGRK to SWAA) (zebrafish)
Test: ELISA
Bridge positions count the residues as written; N and C are the ends. Ends that are not written are not given here.
Value Kind: Ki (nM)
The reply should contain only the number, in nM.

Look up Ki for this binder: GACRRETAWACGA (disulfide 3-11 (inferred)) [cyclic peptide …]
126
